B1: KRT13 (parent)
chain: YGGGLGGGFGGGFAGGFVDFGACD

# Variants of: B1
# test description: protein stability index of a GFP-peptide fusion (GPS, HEK-293T) (PSI 1-6); higher = more stable;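 note: lentivirally expressed fusions sorted by FACS into six bins by GFP to DsRed ratio, PSI derived from sequencing read proportions per bin multiplied by bin number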
# experimental setup: c terminus: a fixed tail appended
Please respond with reported protein stability index for every item in the list.
One number for each entry.

Recorded results for 3 variants are shown here.
YGGGLGGGFGGGFAGGFVDFWACD : 1.99
YGGGLGGGFWGGFAGGFVDFGACD : 3.23
YGGGLGGGFGGGFAGGFVDFGAQD : 1.31

State recorded protein stability index for all listed variants.
1. YGGGLGGGFGGPFAGGFVDFGACD
2. YGGGLGGGFGGGFAMGFVDFGACD
3. YGGGLGQGFGGGFAGGFVDFGACD
4. YGGGLGGGFGGGFAGGFVDFGAHD
5. YGGGLGGGFGGGFAGGFVDFGAFD
6. YGGGLGGGFGGGFAGGFVDWGACD
7. YGGGLGGGFGGGFAGGYVDFGACD

1: 2.17; 2: 4.08; 3: 1.23; 4: 2.2; 5: 1.41; 6: 2.62; 7: 2.01
